test system: A549 NSCLC; assay: NCI tumour cell line growth inhibition, 48 h
MEASURE NAME: TGI

Exam item: What value of TGI has been reported for the following compound? `Cc1nc2ccccc2c(-n2cccn2)c1CCn1cccn1`
Marked response: > 100 µM

Exam item: Would you kindly repeat that for CC(C)C1CN(C(=O)OCc2ccccc2)C2N1C(=O)C2(C)OCc1ccccc1 (configuration not stated) ?
Marked response: > 100 µM

Exam item: Would you kindly repeat that for `CCN(Cc1c(F)cccc1OC)c1ccc(CO)c(Cl)c1` ?
Marked response: 23.1 µM

Exam item: Would you kindly repeat that for `COc1c(C)c(OCC=C(C)C)cc(CO)c1CO` ?
Marked response: > 100 µM

Exam item: Would you kindly repeat that for CC[C@]1(O)C[C@H]2CN(CCc3c([nH]c4ccccc34)C(C(=O)OC)(c3cc4c(cc3OC)N(C)[C@H]3[C@@](O)(C(=O)OC)[C@H](OC(C)=O)[C@]5(CC)[C@@H]6C[C@@H]6CN6CC[C@]43[C@@H]65)C2)C1 (some centres not stated) ?
Marked response: > 14.3 µM

Exam item: Would you kindly repeat that for `COc1cc(O)c2c(=O)c(OC)c(-c3ccc(OC)c(O)c3)oc2c1` ?
Marked response: > 100 µM

Exam item: Would you kindly repeat that for C[C@@H]1CCC2[C@@H](C)[C@@H](O[C@H]3O[C@@H]4O[C@@]5(C)CCC6[C@H](C)CCC([C@H]3C)[C@]64OO5)O[C@@H]3O[C@@]4(C)CCC1[C@@]23OO4 (some centres not stated) ?
Marked response: > 25 µM

Exam item: Would you kindly repeat that for `CCN(CC)c1ccc(/C=C/c2ccnc3ccccc23)cc1` ?
Marked response: > 100 µM

Exam item: Would you kindly repeat that for COC1OC2COC(c3ccccc3)OC2C(O)C1OC(=S)c1ccccc1 (configuration not stated) ?
Marked response: > 100 µM

Exam item: Would you kindly repeat that for `CC(C)=CCC1=C(O)c2ccccc2C(=O)C1=O` ?
Marked response: > 100 µM

Exam item: Would you kindly repeat that for `C=CCn1c(=O)ccn(/C(=C/C(=O)OCC)C(=O)OCC)c1=O` ?
Marked response: 32.3 µM

Exam item: Would you kindly repeat that for `NC(N)=Nc1nc2ccccc2o1` ?
Marked response: > 100 µM

Exam item: Would you kindly repeat that for `O=C(Nc1nc(-c2c[nH]c3ccccc23)cs1)c1n[nH]c(=O)c2ccccc12` ?
Marked response: 83.6 µM

Exam item: Would you kindly repeat that for `O=c1cccc(C#CC#C[C@@H]2O[C@H]2CO)o1` ?
Marked response: 4.8 µM

Exam item: Would you kindly repeat that for `O=c1[nH]c(O)c(C=Nc2ccc(-c3nc4ccccc4o3)cc2)c(=O)[nH]1` ?
Marked response: > 100 µM

Exam item: Would you kindly repeat that for `CC12c3ccccc3C(OC=O)(c3ccccc31)C1(C)c3ccccc3C2(OC=O)c2ccccc21` ?
Marked response: > 100 µM

Exam item: Would you kindly repeat that for `NCCCn1c2c(c3ccc([N+](=O)[O-])cc3c1=O)C(=O)c1cc(I)ccc1-2` ?
Marked response: 1.74 µM

Source: PubChem BioAssay (NCI)
